Ref: patent US20230310428A1

# Tested on: various mutants of kinase EGFR (BaF3 cell lines stably transfected with kinase) (Homo sapiens, UniProt P00533, L858R/T790M)
# Construct: expressed in transfected cells; host or cells: BaF3
# Sequence (P00533 25-1210 T790M/L858R): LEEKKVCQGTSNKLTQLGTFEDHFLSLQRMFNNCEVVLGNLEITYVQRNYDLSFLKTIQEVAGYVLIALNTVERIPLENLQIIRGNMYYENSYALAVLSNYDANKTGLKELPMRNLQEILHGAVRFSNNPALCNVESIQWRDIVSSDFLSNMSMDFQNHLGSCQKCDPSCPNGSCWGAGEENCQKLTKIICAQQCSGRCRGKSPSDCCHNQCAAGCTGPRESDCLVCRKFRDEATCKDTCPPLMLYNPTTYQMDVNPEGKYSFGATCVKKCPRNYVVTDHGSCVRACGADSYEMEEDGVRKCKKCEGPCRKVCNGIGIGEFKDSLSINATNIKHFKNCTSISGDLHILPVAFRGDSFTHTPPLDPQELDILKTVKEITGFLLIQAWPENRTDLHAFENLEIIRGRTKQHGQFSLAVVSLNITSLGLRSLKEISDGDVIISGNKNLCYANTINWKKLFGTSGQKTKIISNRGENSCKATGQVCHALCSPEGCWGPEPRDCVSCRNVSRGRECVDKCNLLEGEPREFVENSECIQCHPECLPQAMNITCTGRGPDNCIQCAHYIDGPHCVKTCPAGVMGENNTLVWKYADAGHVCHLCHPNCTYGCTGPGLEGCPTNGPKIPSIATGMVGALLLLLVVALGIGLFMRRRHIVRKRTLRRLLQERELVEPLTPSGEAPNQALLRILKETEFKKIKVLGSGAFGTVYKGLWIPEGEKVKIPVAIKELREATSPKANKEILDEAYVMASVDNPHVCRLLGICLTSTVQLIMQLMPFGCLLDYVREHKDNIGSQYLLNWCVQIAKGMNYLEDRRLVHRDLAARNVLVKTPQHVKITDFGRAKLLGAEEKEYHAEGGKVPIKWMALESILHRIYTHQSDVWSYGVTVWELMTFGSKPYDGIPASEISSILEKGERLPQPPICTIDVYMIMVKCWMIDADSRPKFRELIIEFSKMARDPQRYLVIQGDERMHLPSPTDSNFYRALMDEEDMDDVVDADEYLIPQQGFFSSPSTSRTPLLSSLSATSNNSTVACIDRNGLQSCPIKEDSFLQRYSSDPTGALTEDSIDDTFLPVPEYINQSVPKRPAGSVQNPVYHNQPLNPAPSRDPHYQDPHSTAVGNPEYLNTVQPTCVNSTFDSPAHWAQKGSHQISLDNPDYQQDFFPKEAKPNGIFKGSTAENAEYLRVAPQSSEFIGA
# Protocol: Growth inhibitory activity of compounds on BaF3 cell lines stably transfected with kinase (MTS, 48 h)
# Type: cell-based
# Test parameters: BaF3 cells stably transfected with EGFR L858R/T790M, read-out: IC50, growth inhibition, L858R/T790M
Recorded IC50 for the following compounds

See these solved cases before continuing.
Compound: COc1cc(N2CCC(N3CCN(C)CC3)CC2)c(C)cc1Nc1ncc(F)c(Nc2ccc3nccnc3c2N(C)S(C)(=O)=O)n1
IC50: ≤ 50 nM
//
Compound: CN1CCN(C2CCN(c3ccc(Nc4ncc(Br)c(Nc5ccc6nccnc6c5N(C)S(C)(=O)=O)n4)c(OC(F)(F)F)c3)CC2)CC1
IC50: 50 to 500 nM
//
Compound: Cc1cc2c(cc1Nc1ncc(Br)c(Nc3ccc4nccnc4c3N(C)S(C)(=O)=O)n1)CN(C)CC2
IC50: 50 to 500 nM
//
Compound: CCN(c1c(Nc2nc(Nc3ccc(N4CCC(N5CCN(C)CC5)CC4)cc3OC)ncc2Br)ccc2nccnc12)S(C)(=O)=O
IC50: ≤ 50 nM
//
Compound: COc1cc(N2CCC(N3CCN(C)CC3)CC2)c(CC2CC2)cc1Nc1ncc(F)c(Nc2ccc3nccnc3c2N(C)S(=O)(=O)C2CC2)n1
IC50: 50 to 500 nM

Looking up COc1cc(N2CCC(N(C)C)C2)c(C)cc1Nc1ncc(Cl)c(Nc2ccc3nccnc3c2N(C)S(C)(=O)=O)n1 (stereo not shown) , I found its IC50 recorded as ≤ 50 nM

Looking up `COc1cc(N2CCC(N3CCN(C)CC3)CC2)c(CC2CC2)cc1Nc1ncc(Cl)c(Nc2ccc3nccnc3c2N(C)S(=O)(=O)C(F)(F)F)n1` , I found its IC50 recorded as 500 to 2500 nM

Looking up `CCc1cc(Nc2ncc(C)c(Nc3ccc4nccnc4c3N(C)S(C)(=O)=O)n2)c(OC)cc1N1CCC(N(C)C)CC1` , I found its IC50 recorded as ≤ 50 nM

Looking up `COc1cc(N2CCC(N3CCN(C)CC3)CC2)c(CC2CC2)cc1Nc1ncc(Br)c(Nc2ccc3nccnc3c2N(C)S(=O)(=O)C(F)(F)F)n1` , I found its IC50 recorded as 500 to 2500 nM

Looking up COc1cc(N2CCC(N(C)C)C2)c(C)cc1Nc1ncc(Br)c(Nc2ccc3nccnc3c2N(C)S(C)(=O)=O)n1 (stereo not shown) , I found its IC50 recorded as ≤ 50 nM

###

# Tested on: various mutants of kinase EGFR (BaF3 cell lines stably transfected with kinase) (Homo sapiens, UniProt P00533, L858R)
# Construct: expressed in transfected cells; host or cells: BaF3
# Sequence (P00533 25-1210 L858R): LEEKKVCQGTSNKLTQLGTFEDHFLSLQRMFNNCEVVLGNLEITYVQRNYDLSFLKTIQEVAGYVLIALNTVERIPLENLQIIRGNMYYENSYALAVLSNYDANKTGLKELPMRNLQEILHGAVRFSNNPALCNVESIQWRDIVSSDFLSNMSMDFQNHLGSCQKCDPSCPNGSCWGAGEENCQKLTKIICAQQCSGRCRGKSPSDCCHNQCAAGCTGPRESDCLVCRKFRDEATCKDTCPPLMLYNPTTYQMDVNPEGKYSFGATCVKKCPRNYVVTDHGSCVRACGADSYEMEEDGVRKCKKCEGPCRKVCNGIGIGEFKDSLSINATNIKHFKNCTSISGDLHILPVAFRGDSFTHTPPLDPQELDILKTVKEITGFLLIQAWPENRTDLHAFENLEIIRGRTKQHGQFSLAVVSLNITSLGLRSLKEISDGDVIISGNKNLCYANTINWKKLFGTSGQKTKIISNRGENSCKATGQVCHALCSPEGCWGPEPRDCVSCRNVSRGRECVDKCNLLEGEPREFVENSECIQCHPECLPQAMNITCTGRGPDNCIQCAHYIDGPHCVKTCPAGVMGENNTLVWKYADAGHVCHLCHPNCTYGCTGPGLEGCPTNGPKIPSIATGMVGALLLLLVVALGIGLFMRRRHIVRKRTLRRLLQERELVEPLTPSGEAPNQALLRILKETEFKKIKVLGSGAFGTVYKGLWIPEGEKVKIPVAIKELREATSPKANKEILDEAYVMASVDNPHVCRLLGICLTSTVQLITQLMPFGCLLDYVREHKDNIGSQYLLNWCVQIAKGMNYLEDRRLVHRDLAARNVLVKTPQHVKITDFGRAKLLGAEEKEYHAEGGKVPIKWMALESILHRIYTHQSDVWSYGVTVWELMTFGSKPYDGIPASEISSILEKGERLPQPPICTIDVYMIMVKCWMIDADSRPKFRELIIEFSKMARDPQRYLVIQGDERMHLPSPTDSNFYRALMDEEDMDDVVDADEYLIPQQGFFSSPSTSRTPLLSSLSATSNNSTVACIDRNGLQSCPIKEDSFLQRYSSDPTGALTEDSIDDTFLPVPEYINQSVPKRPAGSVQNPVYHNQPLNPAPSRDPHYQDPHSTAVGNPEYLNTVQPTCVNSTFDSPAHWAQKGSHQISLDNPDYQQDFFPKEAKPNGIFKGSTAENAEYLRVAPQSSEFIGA
# Protocol: Growth inhibitory activity of compounds on BaF3 cell lines stably transfected with kinase (MTS, 48 h)
# Type: cell-based
# Test parameters: BaF3 cell line stably transfected with EGFR L858R, read-out: L858R growth inhibitory activity IC50
pIC50: −log10 of the molar value.
Endpoint: pIC50

Molecule: COc1ccc(N2CCC(O)CC2)cc1Nc1ncc(Br)c(Nc2ccc3nccnc3c2N(C)S(=O)(=O)C(C)C)n1
pIC50: 6.30 to 7.30

Molecule: CCc1cc(Nc2nc(Nc3ccc4nccnc4c3N(C)S(C)(=O)=O)c3cc[nH]c3n2)c(OC)cc1N1CCC(N(C)C)C1 (centres unmarked)
pIC50: 5.60 to 6.30

Molecule: CCc1cc(Nc2ncc(CC)c(Nc3ccc4nccnc4c3N(C)S(C)(=O)=O)n2)c(OC(F)(F)F)cc1N1CCC(N2CCN(C)CC2)CC1
pIC50: 6.30 to 7.30

Molecule: CN(c1c(Nc2nc(Nc3cccc(N4CCC(N5CCCC5)CC4)c3)ncc2Br)ccc2nccnc12)S(C)(=O)=O
pIC50: 6.30 to 7.30

Molecule: CCc1cnc(Nc2cc(CC)c(N3CCC(N4CCN(C)CC4)CC3)nc2OC)nc1Nc1ccc2nccnc2c1N(C)S(C)(=O)=O
pIC50: ≥ 7.30

Molecule: COc1nc(N2CCC(N3CCN(C)CC3)CC2)c(C)cc1Nc1nc(Nc2ccc3nccnc3c2N(C)S(C)(=O)=O)c2[nH]ccc2n1
pIC50: 5.60 to 6.30

Molecule: CN1CCN(C2CCN(c3ccc(Nc4nc(Nc5ccc6nccnc6c5N(C)S(C)(=O)=O)c5[nH]ccc5n4)c(OC(F)(F)F)c3)CC2)CC1
pIC50: 5.60 to 6.30

Molecule: CCc1cc(Nc2nc(Nc3ccc4nccnc4c3N(C)S(C)(=O)=O)c3sccc3n2)c(OC)cc1N1CCC(N(C)C)C1 (centres unmarked)
pIC50: 6.30 to 7.30

Looking up `COc1ccc(N2CCC(O)CC2)cc1Nc1ncc(C(C)C)c(Nc2ccc3nccnc3c2N(C)S(C)(=O)=O)n1` , I found its pIC50 recorded as 6.30 to 7.30

Looking up `COc1cc(N2CCN(C)CC2)c(C)cc1Nc1ncc(Br)c(Nc2ccc3nccnc3c2N(C2CC2)S(C)(=O)=O)n1` , I found its pIC50 recorded as ≥ 7.30

Looking up `COc1cc(N2CCC(N3CCN(C)CC3)CC2)c(Cc2ccccc2)cc1Nc1nc(Nc2ccc3nccnc3c2N(C)S(C)(=O)=O)c2sccc2n1` , I found its pIC50 recorded as 5.60 to 6.30

###

Recorded pIC50 for the following molecules
# Tested on: various mutants of kinase EGFR (BaF3 cell lines stably transfected with kinase) (Homo sapiens, UniProt P00533, C797S/L858R/T790M)
# Construct: expressed in transfected cells; host or cells: BaF3
# Sequence (P00533 25-1210 T790M/C797S/L858R): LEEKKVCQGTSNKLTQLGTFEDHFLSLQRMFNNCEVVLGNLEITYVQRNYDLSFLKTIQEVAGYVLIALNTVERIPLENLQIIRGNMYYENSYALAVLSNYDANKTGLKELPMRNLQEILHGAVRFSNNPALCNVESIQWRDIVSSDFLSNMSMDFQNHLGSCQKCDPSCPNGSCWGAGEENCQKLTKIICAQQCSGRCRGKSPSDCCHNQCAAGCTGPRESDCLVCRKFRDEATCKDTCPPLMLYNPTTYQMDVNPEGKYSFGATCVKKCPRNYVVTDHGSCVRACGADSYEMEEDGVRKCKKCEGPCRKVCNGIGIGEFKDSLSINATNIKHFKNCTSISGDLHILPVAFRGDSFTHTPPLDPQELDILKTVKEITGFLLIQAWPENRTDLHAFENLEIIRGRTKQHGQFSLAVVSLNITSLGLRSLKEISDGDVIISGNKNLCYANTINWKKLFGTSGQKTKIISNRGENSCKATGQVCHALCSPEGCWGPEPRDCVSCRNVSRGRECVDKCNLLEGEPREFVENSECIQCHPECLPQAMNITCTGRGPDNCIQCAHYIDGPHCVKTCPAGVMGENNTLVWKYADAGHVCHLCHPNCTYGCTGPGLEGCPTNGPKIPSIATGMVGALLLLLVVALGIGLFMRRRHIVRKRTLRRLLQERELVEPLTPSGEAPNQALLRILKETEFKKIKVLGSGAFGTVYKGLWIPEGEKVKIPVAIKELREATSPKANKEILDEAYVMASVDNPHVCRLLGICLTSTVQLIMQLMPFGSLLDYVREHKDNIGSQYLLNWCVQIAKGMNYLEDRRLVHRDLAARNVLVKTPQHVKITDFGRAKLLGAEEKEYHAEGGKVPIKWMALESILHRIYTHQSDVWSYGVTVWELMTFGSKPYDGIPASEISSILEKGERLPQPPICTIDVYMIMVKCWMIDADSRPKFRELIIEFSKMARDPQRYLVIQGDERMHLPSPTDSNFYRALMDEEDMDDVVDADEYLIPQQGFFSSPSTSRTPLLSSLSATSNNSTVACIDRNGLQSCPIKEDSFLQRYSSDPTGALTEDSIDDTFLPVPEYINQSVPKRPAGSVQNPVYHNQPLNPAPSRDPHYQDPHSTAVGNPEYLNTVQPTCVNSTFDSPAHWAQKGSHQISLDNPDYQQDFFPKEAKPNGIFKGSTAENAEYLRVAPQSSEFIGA
# Protocol: Growth inhibitory activity of compounds on BaF3 cell lines stably transfected with kinase (MTS, 48 h)
# Type: cell-based
# Test parameters: BaF3 cell line stably transfected with EGFR L858R/T790M/C797S, read-out: L858R/T790M/ C797S growth inhibitory activity IC50
pIC50: −log10 of the molar value.

Looking up COc1cc(N2CCC(N(C)C)C2)c(C)cc1Nc1nc(Nc2ccc3nccnc3c2N(C)S(C)(=O)=O)c2sccc2n1 (stereo not shown) [II-1-14] , I found its pIC50 recorded as 5.60 to 6.30

Looking up COc1cc(N2CCC(N3CCN(C)CC3)CC2)c(C)cc1Nc1ncc(OC)c(Nc2ccc3nccnc3c2N(C)S(C)(=O)=O)n1 [Compound I-332] , I found its pIC50 recorded as ≥ 7.30

Looking up CCn1cc(Nc2ncc(Br)c(Nc3ccc4nccnc4c3N(C)S(C)(=O)=O)n2)c(C)n1 [Compound I-387] , I found its pIC50 recorded as 6.30 to 7.30

Looking up CCc1cc(Nc2ncc(Br)c(Nc3ccc4nccnc4c3N(C)S(C)(=O)=O)n2)c(OC)cc1NCCN(C)C [Compound I-391] , I found its pIC50 recorded as ≥ 7.30

Looking up C=Cc1cc(Nc2nc(Nc3ccc4nccnc4c3N(C)S(C)(=O)=O)c3cc[nH]c3n2)c(OC(F)(F)F)cc1N1CCC(N2CCN(C)CC2)CC1 [II-2-9] , I found its pIC50 recorded as ≥ 7.30

Looking up CCc1cc(Nc2ncc(Br)c(Nc3ccc4nccnc4c3N(C3CC3)S(C)(=O)=O)n2)c(OC)cc1N1CCN(C)CC1 [Compound I-310] , I found its pIC50 recorded as ≥ 7.30

Looking up CCc1cc(Nc2ncc(Br)c(Nc3ccc4nccnc4c3NS(C)(=O)=O)n2)c(OC)cc1N1CCN(C)CC1 [Compound I-411] , I found its pIC50 recorded as ≥ 7.30

Looking up CCc1cc(Nc2ncc(OC)c(Nc3ccc4nccnc4c3N(C)S(C)(=O)=O)n2)c(OC)nc1N1CCC(N2CCN(C)CC2)CC1 [Compound I-334] , I found its pIC50 recorded as ≥ 7.30

Looking up COc1ccc(N2CCC(O)CC2)cc1Nc1ncc(Cl)c(Nc2ccc3nccnc3c2N(C)S(C)(=O)=O)n1 [Compound I-368] , I found its pIC50 recorded as ≥ 7.30

Looking up CCc1cc(Nc2ncc(Br)c(Nc3ccc4nccnc4c3NS(C)(=O)=O)n2)c(OC)cc1N1CCC(N2CCN(C)CC2)CC1 [Compound I-403] , I found its pIC50 recorded as ≥ 7.30

Looking up CCc1cc(Nc2nc(Nc3ccc4nccnc4c3N(C)S(C)(=O)=O)c3[nH]ccc3n2)c(OC)cc1N1CCC(N(C)C)C1 (stereo not shown) [II-1-36] , I found its pIC50 recorded as 5.60 to 6.30

Looking up COc1cc(N2CCC(N3CCN(C)CC3)CC2)c(C2CC2)cc1Nc1nccc(Nc2ccc3nccnc3c2N(C)S(C)(=O)=O)n1 [Compound I-343] , I found its pIC50 recorded as 6.30 to 7.30

Looking up COc1cc(N2CCC(N3CCN(C)CC3)CC2)ccc1Nc1ncc(C(C)C)c(Nc2ccc3nccnc3c2N(C)S(C)(=O)=O)n1 [Compound I-325] , I found its pIC50 recorded as 6.30 to 7.30
